Conditions: in n-butanol, 283.15 K
measure_name: solubility (mole fraction)

| molecule | measure_name | measured_number |
| --- | --- | --- |
| OC[C@H]1O[C@@H](c2ccc(Cl)c(Cc3ccc(O[C@H]4CCOC4)cc3)c2)[C@H](O)[C@@H](O)[C@@H]1O | solubility (mole fraction) | 2.73e-06 |

---

Conditions: in DMF, 288.15 K

| molecule | solubility (mole fraction) |
| --- | --- |
| OC[C@H]1O[C@@H](c2ccc(Cl)c(Cc3ccc(O[C@H]4CCOC4)cc3)c2)[C@H](O)[C@@H](O)[C@@H]1O | 0.00129 |

---

Conditions: in acetonitrile, 308.15 K

| molecule | solubility (mole fraction) |
| --- | --- |
| OC[C@H]1O[C@@H](c2ccc(Cl)c(Cc3ccc(O[C@H]4CCOC4)cc3)c2)[C@H](O)[C@@H](O)[C@@H]1O | 4.87e-06 |

---

Conditions: in n-butanol, 293.15 K

| molecule | solubility (mole fraction) |
| --- | --- |
| OC[C@H]1O[C@@H](c2ccc(Cl)c(Cc3ccc(O[C@H]4CCOC4)cc3)c2)[C@H](O)[C@@H](O)[C@@H]1O | 5.9e-06 |

---

Conditions: in methanol, 288.15 K
measure_name: solubility (mole fraction)

| molecule | measured_number |
| --- | --- |
| OC[C@H]1O[C@@H](c2ccc(Cl)c(Cc3ccc(O[C@H]4CCOC4)cc3)c2)[C@H](O)[C@@H](O)[C@@H]1O | 3e-05 |

---

Details: in ethylene glycol, 283.15 K
measure_name: solubility (mole fraction)

| molecule | measure_name | measured_number |
| --- | --- | --- |
| OC[C@H]1O[C@@H](c2ccc(Cl)c(Cc3ccc(O[C@H]4CCOC4)cc3)c2)[C@H](O)[C@@H](O)[C@@H]1O | solubility (mole fraction) | 1.48e-05 |

---

Settings: in ethyl acetate, 308.15 K
measure_name: solubility (mole fraction)

| molecule | measure_name | measured_number |
| --- | --- | --- |
| OC[C@H]1O[C@@H](c2ccc(Cl)c(Cc3ccc(O[C@H]4CCOC4)cc3)c2)[C@H](O)[C@@H](O)[C@@H]1O | solubility (mole fraction) | 4.27e-06 |

---

Conditions: in methanol, 283.15 K
measure_name: solubility (mole fraction)

| molecule | measured_number |
| --- | --- |
| OC[C@H]1O[C@@H](c2ccc(Cl)c(Cc3ccc(O[C@H]4CCOC4)cc3)c2)[C@H](O)[C@@H](O)[C@@H]1O | 2.48e-05 |

---

Details: in n-propanol, 283.15 K

| molecule | solubility (mole fraction) |
| --- | --- |
| OC[C@H]1O[C@@H](c2ccc(Cl)c(Cc3ccc(O[C@H]4CCOC4)cc3)c2)[C@H](O)[C@@H](O)[C@@H]1O | 2.43e-06 |

---

Conditions: in ethylene glycol, 313.15 K

| molecule | solubility (mole fraction) |
| --- | --- |
| OC[C@H]1O[C@@H](c2ccc(Cl)c(Cc3ccc(O[C@H]4CCOC4)cc3)c2)[C@H](O)[C@@H](O)[C@@H]1O | 7.01e-05 |

---

Conditions: in DMF, 308.15 K

| molecule | solubility (mole fraction) |
| --- | --- |
| OC[C@H]1O[C@@H](c2ccc(Cl)c(Cc3ccc(O[C@H]4CCOC4)cc3)c2)[C@H](O)[C@@H](O)[C@@H]1O | 0.00158 |

// provenance: BigSolDB 2.1
